Reference source: patent US5229412A

Molecular target: 5-HT1A (Rattus norvegicus, UniProt P19327)
Construct: rat brain were purchased from Pel-Freez; tissue Pel-Freez (Roger, AR); host or cells: rat brain (cortex) membranes
Sequence (P19327 whole entry): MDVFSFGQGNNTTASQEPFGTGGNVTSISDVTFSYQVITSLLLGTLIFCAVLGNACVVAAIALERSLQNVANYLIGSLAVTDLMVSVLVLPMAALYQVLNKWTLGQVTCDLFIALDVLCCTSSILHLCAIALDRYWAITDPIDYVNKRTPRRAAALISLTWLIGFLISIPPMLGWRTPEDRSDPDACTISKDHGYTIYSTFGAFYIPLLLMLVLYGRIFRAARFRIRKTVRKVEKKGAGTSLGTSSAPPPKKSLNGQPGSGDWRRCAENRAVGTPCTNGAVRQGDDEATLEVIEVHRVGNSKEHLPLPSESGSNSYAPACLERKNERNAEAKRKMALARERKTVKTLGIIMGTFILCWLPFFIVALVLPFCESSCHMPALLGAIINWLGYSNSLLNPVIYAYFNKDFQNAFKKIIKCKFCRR
Assay: Radioligand binding, 5-HT1A sites labeled by ^3 H-8-OH-DPAT, rat cortex
READOUT_KIND: potency at the 5-HT1A binding site (in words)

Field potency at the 5-HT1A binding site (in words) (entry COC(=O)/C=C/C(=O)N[C@]1(C)CC[C@H](C(C)(C)NCC(O)COc2cccc3[nH]ccc23)CC1 (stereo partly shown) [Compound 13] ) reads extremely potent

In plain terms, CC(C)(NCC(O)COc1cccc2[nH]ccc12)[C@H]1CC[C@@](C)(NC(=O)CBr)CC1 (stereo partly shown) [Compound 9] has a documented potency at the 5-HT1A binding site (in words) of extremely potent

Notebook: CC(C)(NCC(O)COc1cccc2[nH]ccc12)[C@H]1CC[C@@](C)(NC(=O)C2=CC3C=CC2CC3)CC1 (stereo partly shown) [Compound 15] , potency at the 5-HT1A binding site (in words) read as extremely potent

---

Test system: non-5-HT1A
Test: Radioligand binding, non-5-HT1A sites labeled by ^3 H-5-HT + 100 nM 8-OH-DPAT, rat cortex
Conditions: rat cortex
READOUT_KIND: potency at non-5-HT1A binding sites (in words)

Short answer for COC(=O)/C=C/C(=O)NC(C)(C)[C@H]1CC[C@@](C)(NCC(O)COc2cccc3[nH]ccc23)CC1 (stereo partly shown) [Compound 12] : potency at non-5-HT1A binding sites (in words) was least potent

potency at non-5-HT1A binding sites (in words) reading for CC(C)(NC(=O)CBr)[C@H]1CC[C@@](C)(NCC(O)COc2cccc3[nH]ccc23)CC1 (stereo partly shown) [Compound 8] : least potent

The compound identified as CC(C)(NCC(O)COc1cccc2[nH]c(C#N)cc12)[C@H]1CC[C@@](C)(NC(=O)CBr)CC1 (stereo partly shown) [Compound 11] registered its potency at non-5-HT1A binding sites (in words) at least potent

Given item CC(C)(NC(=O)C1=CC2C=CC1CC2)[C@H]1CC[C@@](C)(NCC(O)COc2cccc3[nH]ccc23)CC1 (stereo partly shown) [Compound 14] , the value recorded as its potency at non-5-HT1A binding sites (in words) is least potent

---

Molecular target: non-5-HT1A
Assay: Radioligand binding, non-5-HT1A sites labeled by ^3 H-5-HT + 100 nM 8-OH-DPAT, rat cortex
Settings: used for Ki calculation
Experimental: Briefly, rat brain were purchased from Pel-Freez (Roger, AR). On the day of study, the samples were thawed in Tris-HCl buffer. Tissues were homogenized in 20 volumes Tris-HCl buffer (pH 7.7 at 25° C.) using a Brinkmann Polytron and then centrifuged in an IEC B20A centrifuge at 49,000×g for 10 min. The supernatant was discarded, and the pellet was resuspended in the same volume of Tris-HCl buffer and incubated at 37° C. for 10 min prior to a second centrifugation at 49,000×g for 10 min. […]
READOUT_KIND: pKd
Give bare numbers, as −log10 of the molar value.

// NCCc1c[nH]c2ccc(O)cc12 [^3 H-5-HT, 5-Hydroxytryptamine] : pKd value = 8.49

---

Target: 5-HT2 (Rattus norvegicus, UniProt P14842)
Construct: rat brain were purchased from Pel-Freez; tissue Pel-Freez (Roger, AR); host or cells: rat brain (cortex) membranes
Sequence (P14842 whole entry): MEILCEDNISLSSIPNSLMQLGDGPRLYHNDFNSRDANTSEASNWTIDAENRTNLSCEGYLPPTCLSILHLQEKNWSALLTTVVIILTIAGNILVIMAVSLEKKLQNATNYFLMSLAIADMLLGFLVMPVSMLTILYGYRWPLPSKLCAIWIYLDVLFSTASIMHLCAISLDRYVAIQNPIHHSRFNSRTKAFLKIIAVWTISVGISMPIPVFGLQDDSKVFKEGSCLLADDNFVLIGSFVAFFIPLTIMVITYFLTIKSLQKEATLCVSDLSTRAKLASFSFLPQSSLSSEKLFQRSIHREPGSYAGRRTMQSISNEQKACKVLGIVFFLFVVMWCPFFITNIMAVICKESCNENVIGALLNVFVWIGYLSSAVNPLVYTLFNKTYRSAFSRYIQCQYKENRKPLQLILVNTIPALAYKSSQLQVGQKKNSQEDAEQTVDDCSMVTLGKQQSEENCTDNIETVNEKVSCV
Experiment: Radioligand binding, 5-HT2 sites labeled by ^3 H-spiperone, rat cortex
READOUT_KIND: potency at 5-HT2 binding sites (in words)

response.value for COC(=O)/C=C/C(=O)NC(C)(C)[C@H]1CC[C@@](C)(NCC(O)COc2cccc3[nH]ccc23)CC1 (stereo partly shown) (field: potency at 5-HT2 binding sites (in words)) = least potent

The reported value for CC(C)(NC(=O)C1=CC2C=CC1CC2)[C@H]1CC[C@@](C)(NCC(O)COc2cccc3[nH]ccc23)CC1 (stereo partly shown) in terms of potency at 5-HT2 binding sites (in words) is least potent

Entry under test: CC(C)(NCC(O)COc1cccc2[nH]c(C#N)cc12)[C@H]1CC[C@@](C)(NC(=O)CBr)CC1 (stereo partly shown) . Its potency at 5-HT2 binding sites (in words) was least potent

The compound identified as CC(C)(NC(=O)CBr)[C@H]1CC[C@@](C)(NCC(O)COc2cccc3[nH]ccc23)CC1 (stereo partly shown) registered its potency at 5-HT2 binding sites (in words) at least potent
